Consider the following compounds and their measured ΔTm at 10 µM readings.
Biological target: TRIB2A (Homo sapiens, UniProt Q92519)
Construct: TEV-cleavable (cleaved yes); made in house; host or cells: E. coli
Sequence (Q92519 1-343): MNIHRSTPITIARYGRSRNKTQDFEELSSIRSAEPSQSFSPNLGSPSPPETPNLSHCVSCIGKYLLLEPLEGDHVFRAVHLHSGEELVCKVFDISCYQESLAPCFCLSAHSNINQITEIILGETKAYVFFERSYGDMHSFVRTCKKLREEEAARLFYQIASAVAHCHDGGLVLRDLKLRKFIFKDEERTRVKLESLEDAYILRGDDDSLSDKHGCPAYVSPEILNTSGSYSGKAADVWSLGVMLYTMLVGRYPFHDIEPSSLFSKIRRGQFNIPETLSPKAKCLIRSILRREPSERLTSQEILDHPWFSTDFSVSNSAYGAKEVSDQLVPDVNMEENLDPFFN
Experiment: DSF thermal shift, kinase panel
Assay type: binding
Settings: 10 μM compound

Cc1ccc(Nc2nsnc(Nc3cccc(C(N)=O)c3)c2=O)cc1O : 2.5 °C

Exam item: Give the reported value of ΔTm at 10 µM for this record: CNC(=O)c1ccccc1Nc1nsnc(Nc2ccc(N3CCOCC3)cc2)c1=O
Marked response: ~1 °C

Exam item: Name the recorded ΔTm at 10 µM of the item Cc1ccc(Nc2nsnc(Nc3ccc4c(c3)CS(=O)(=O)C4)c2=O)cc1O in your answer.
Marked response: 4.9 °C

Exam item: // fetch ΔTm at 10 µM given entry CNC(=O)c1ccccc1Nc1nsnc(Nc2cccc(CS(C)(=O)=O)c2)c1=O
Marked response: ~1 °C

====

Molecular target: GAKA (Homo sapiens, UniProt O14976)
Construct: purchased in-house (home-made panel, SGC-style construct names)
Sequence (O14976 whole entry): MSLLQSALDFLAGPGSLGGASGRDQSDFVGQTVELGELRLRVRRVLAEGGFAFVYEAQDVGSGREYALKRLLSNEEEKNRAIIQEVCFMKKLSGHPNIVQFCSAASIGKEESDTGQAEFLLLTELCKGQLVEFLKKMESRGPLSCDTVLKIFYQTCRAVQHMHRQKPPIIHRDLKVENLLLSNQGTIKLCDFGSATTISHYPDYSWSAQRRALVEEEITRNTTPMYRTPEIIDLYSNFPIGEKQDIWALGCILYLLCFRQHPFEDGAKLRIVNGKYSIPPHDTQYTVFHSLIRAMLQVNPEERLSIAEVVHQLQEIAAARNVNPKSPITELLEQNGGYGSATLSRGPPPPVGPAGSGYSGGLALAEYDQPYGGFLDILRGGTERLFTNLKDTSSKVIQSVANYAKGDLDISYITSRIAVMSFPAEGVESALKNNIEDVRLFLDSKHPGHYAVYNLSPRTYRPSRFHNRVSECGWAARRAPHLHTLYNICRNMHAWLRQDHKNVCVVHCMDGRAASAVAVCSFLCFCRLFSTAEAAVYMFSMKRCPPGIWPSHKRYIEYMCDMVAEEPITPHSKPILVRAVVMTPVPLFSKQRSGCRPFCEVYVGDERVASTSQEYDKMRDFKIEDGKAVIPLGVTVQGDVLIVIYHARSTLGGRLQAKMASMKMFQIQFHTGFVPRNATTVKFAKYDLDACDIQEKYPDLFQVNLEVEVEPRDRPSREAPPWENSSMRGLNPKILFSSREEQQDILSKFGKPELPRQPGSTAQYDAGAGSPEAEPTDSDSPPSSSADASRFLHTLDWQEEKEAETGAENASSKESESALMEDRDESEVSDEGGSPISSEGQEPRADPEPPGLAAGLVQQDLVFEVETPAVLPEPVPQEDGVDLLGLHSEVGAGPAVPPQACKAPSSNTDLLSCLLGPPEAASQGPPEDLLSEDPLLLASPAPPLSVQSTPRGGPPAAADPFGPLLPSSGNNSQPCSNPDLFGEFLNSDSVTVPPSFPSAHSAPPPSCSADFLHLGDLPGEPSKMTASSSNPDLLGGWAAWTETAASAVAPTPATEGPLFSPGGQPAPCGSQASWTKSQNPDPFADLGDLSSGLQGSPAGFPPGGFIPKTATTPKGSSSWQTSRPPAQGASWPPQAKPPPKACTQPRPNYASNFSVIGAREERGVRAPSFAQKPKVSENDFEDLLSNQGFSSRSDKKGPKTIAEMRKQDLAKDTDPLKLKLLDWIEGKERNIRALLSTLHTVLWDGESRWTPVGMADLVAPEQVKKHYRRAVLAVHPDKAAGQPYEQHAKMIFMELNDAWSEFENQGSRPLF
Test: DSF thermal shift, kinase panel
Type: binding
Settings: 10 μM compound
Experimental: The corresponding dianilino-TDZs (1–5) were tested on a panel of 46 protein kinases representing the major kinome branches at a concentration of 10 μM using a Differential Scanning Fluorimetry (DSF). […] Protein thermal shift data was measured in a qPCR instrument (Applied Biosystems QuantStudio 6) programmed to equilibrate the plate at 25 °C for 5 min followed by ramping the temperature to 95 °C at a rate of 0.05 °C/s. […]
measured_parameter: ΔTm at 10 µM (°C)
# output: bare number, implied unit °C

CNC(=O)c1ccccc1Nc1nsnc(Nc2cccc(CS(C)(=O)=O)c2)c1=O : -0.4

Exam item: Return reported ΔTm at 10 µM. Input compound: CNC(=O)c1ccccc1Nc1nsnc(Nc2ccc(N3CCOCC3)cc2)c1=O
Marked response: -0.4

Exam item: State its ΔTm at 10 µM for this compound: Cc1ccc(Nc2nsnc(Nc3ccc(C(N)=O)cc3)c2=O)cc1O
Marked response: 1.4

Exam item: For the compound Cc1ccc(Nc2nsnc(Nc3cccc(C(N)=O)c3)c2=O)cc1O , report ΔTm at 10 µM.
Marked response: -0.3

Exam item: Return value of ΔTm at 10 µM for input Cc1ccc(Nc2nsnc(Nc3ccc4c(c3)CS(=O)(=O)C4)c2=O)cc1O , no commentary.
Marked response: 0

====

ΔTm at 10 µM: recorded values
target: DYRK2A (Homo sapiens, UniProt Q92630); construct: purchased in-house (home-made panel, SGC-style construct names); test: DSF thermal shift, kinase panel; type: binding; conditions: 10 μM compound
Sequence (Q92630 whole entry): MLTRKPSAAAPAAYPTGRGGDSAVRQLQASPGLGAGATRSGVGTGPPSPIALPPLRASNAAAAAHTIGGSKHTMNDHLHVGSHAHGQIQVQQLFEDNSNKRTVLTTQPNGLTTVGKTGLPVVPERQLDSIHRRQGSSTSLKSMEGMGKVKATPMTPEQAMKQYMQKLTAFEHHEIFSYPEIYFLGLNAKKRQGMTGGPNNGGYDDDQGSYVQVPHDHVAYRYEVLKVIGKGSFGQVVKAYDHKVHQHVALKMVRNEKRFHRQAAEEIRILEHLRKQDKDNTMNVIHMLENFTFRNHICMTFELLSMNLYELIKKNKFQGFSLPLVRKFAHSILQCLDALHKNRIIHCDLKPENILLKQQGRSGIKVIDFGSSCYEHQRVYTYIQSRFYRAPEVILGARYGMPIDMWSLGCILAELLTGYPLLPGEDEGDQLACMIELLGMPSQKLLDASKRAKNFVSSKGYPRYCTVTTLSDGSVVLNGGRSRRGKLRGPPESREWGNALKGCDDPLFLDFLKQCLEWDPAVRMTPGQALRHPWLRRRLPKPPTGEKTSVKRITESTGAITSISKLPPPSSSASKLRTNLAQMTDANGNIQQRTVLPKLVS
Quick note: give the figure in °C, leave out the unit.

Cc1ccc(Nc2nsnc(Nc3ccc(C(N)=O)cc3)c2=O)cc1O : 2.4
Cc1ccc(Nc2nsnc(Nc3ccc4c(c3)CS(=O)(=O)C4)c2=O)cc1O : 0.7

Exam item: Please supply the value of reported ΔTm at 10 µM for the item CNC(=O)c1ccccc1Nc1nsnc(Nc2cccc(CS(C)(=O)=O)c2)c1=O
Marked response: 0.1

Exam item: Tell me its ΔTm at 10 µM given Cc1ccc(Nc2nsnc(Nc3cccc(C(N)=O)c3)c2=O)cc1O as the entry.
Marked response: 0.1

Exam item: Read off the recorded ΔTm at 10 µM for CNC(=O)c1ccccc1Nc1nsnc(Nc2ccc(N3CCOCC3)cc2)c1=O
Marked response: 0.1
